Assignment: determine reported % Reversal for the given binders.
# target or test system: T1, calreticulin as used in the gel mobility shift assays of Examples 7 and 15 (Homo sapiens (Human), UniProt P27797 18-417)
# T1 construct: Could be m1 or m2
# T1 sequence: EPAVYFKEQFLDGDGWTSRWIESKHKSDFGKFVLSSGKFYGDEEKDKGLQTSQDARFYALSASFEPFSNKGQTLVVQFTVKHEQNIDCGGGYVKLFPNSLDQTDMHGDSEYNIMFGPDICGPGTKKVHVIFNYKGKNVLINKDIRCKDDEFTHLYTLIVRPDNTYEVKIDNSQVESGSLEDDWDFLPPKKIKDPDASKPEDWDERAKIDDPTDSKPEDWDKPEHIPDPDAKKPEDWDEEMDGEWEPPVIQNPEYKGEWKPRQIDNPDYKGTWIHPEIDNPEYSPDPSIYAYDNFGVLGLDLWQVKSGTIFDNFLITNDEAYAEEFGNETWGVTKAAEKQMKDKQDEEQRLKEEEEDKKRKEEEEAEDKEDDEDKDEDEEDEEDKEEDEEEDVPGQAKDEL
# procedure text: gel mobility shift, PhosphorImager; reversal of calreticulin inhibition of AR binding to its DNA response element; competitor AR

Worked cases, answers included:
> print(dat)
                                     binder  result
1  KLGFFKR (Used free in solution and immobilised on sepharose; also called KLGFFKR-sepharose) [KLGFFKR synthetic peptide]     62%
2                 KLGFFGR [KLGFFGR peptide]     85%
3                 KLGFFKG [KLGFFKG peptide]     63%

Respectfully, I request % Reversal for each entry included below.
1. KLGFRKR [KLGFRKR peptide]
2. KVFFKR (also called 285; androgen receptor derived peptide) [KVFFKR peptide]
3. KLDFFKR [KLDFFKR peptide]
4. GLGFFKR [GLGFFKR peptide]
5. KLGRFKR [KLGRFKR peptide]

Resp:
["6%", "100%", "0%", "100%", "10%"]

Values compiled from patent US6518397B1.
